- test details: Identification of antibody-drug conjugate (ADC) payloads which are substrates of ATP-binding cassette drug efflux transporters: ABCG2-H460-MX20 cell line
- condition set: H460-MX20 (ABCG2) viability, CellTiter-Glo, 48 h; series mostly up to 28.7 µM
Records with an inconclusive call do not appear. Activity calls are given as the source filed them. The call rests on the fitted dose curve; in most records, active means well fitted inhibition curve with a large enough effect; inconclusive means small, poorly fitted or top-dose-only effect; inactive means flat fitted curve, though single readings scatter.
Outcomes: y = active, n = inactive

molecule	label
COc1cccc2c1C(=O)c1c(O)c3c(c(O)c1C2=O)C[C@@](O)(C(=O)CO)C[C@@H]3O[C@H]1C[C@H]2[C@H](O[C@@H]3[C@@H](OC)OCCN32)[C@H](C)O1	y
CC[C@H](C)[C@@H]([C@H](N)CC(=O)N1CCC[C@H]1[C@H](OC)[C@@H](C)C(=O)N[C@@H](Cc1ccccc1)c1nccs1)N(C)C(=O)[C@@H](NC(=O)[C@@H](NC)C(C)C)C(C)C	n
COC(=O)c1cc2c3c(cc(O)c2[nH]1)N(C(=O)c1cc2cc(OC)c(OC)c(OC)c2[nH]1)CC3CCl (centres undefined)	y
COc1cccc2c1C(=O)c1c(O)c3c(c(O)c1C2=O)C[C@@](O)(C(=O)CO)C[C@@H]3O[C@H]1C[C@H](N)[C@H](O)[C@H](C)O1	y
